These data points were gathered from patent US20220380459A1.

assayed_system: T1, human CD33 extracellular domain (human, UniProt P20138 18-259)
T1 construct: soluble monomeric ECD; also called human CD33 ECD; hCD33
measurement_protocol: SPR, Fab captured, 37C;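 also: Anti-CD33 Fabs captured on anti-Fab chip, soluble monomeric CD33 or its domains flowed over at several concentrations, double-referenced data fitted 1:1, Kd taken as koff/kon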
outcome_measure: kon (M⁻¹ s⁻¹)

{"binder": "ADI-10159 Fab (Fab, V domains shown, Fab fragment; also called Ab1; G59) VH: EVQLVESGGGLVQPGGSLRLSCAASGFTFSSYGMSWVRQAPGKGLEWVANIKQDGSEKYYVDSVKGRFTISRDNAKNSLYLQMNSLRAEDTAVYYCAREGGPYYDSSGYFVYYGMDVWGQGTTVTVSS VL: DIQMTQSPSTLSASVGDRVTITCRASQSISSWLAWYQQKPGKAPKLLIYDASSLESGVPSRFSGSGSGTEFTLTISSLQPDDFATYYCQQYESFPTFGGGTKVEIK", "reported_result": 429000}
{"binder": "ADI-10161 Fab (Fab, V domains shown, Fab fragment; also called Ab16) VH: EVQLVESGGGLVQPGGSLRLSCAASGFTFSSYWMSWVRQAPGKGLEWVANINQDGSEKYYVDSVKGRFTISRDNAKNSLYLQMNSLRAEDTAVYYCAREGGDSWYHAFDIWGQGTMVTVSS VL: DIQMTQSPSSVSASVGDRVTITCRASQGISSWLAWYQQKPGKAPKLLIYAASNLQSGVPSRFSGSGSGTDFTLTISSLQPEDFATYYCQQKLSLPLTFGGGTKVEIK", "reported_result": 574000}
{"binder": "ADI-11835 Fab (Fab, V domains shown, Fab fragment; also called Ab10; I35) VH: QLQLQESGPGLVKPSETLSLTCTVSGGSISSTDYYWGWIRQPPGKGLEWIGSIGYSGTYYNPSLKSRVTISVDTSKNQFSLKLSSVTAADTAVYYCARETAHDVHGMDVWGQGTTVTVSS VL: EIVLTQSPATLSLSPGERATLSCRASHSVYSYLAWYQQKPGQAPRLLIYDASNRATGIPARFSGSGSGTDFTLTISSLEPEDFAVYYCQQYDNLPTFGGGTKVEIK", "reported_result": "2.6e+06"}
{"binder": "ADI-11839 Fab (Fab, V domains shown, Fab fragment; also called Ab28) VH: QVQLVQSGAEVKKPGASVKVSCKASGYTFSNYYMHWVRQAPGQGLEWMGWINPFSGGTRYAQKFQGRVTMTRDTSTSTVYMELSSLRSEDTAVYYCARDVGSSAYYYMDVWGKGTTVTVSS VL: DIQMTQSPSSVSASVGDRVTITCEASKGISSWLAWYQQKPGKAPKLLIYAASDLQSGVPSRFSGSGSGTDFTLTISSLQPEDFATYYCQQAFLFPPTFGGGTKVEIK", "reported_result": 874000}
{"binder": "ADI-11776 Fab (Fab, V domains shown, Fab fragment; also called Ab3; H76) VH: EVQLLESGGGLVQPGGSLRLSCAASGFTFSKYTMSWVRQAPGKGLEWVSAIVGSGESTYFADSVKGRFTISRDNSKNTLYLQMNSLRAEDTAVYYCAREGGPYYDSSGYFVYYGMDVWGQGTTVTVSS VL: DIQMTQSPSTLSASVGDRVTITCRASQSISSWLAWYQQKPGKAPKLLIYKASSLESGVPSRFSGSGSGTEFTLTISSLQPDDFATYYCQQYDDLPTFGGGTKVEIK", "reported_result": "1.6e+06"}
{"binder": "ADI-11828 Fab (Fab, V domains shown, Fab fragment; also called Ab27) VH: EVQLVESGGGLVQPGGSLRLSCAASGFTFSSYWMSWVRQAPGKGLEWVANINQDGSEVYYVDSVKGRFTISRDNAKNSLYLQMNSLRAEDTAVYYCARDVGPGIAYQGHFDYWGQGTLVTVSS VL: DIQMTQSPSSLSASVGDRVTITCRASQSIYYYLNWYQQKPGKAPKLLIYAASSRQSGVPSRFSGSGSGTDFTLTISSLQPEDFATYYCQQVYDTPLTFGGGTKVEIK", "reported_result": "1.32e+06"}
{"binder": "ADI-10177 Fab (Fab, V domains shown, Fab fragment; also called Ab2) VH: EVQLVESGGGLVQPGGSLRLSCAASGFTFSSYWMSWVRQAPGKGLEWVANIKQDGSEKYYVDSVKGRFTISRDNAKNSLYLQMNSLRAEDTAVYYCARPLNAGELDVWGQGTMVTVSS VL: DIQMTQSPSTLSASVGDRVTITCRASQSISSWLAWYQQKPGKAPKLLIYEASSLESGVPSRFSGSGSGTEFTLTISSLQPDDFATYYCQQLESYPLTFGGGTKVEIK", "reported_result": 558000}
{"binder": "ADI-11812 Fab (Fab, V domains shown, Fab fragment; also called Ab24) VH: QVQLVQSGAEVKKPGASVKVSCKASGYTFEIYYMHWVRQAPGQGLEWMGIINPSSGSTVYAQKFQGRVTMTRDTSTSTVYMELSSLRSEDTAVYYCARGAGYDDEDMDVWGKGTTVTVSS VL: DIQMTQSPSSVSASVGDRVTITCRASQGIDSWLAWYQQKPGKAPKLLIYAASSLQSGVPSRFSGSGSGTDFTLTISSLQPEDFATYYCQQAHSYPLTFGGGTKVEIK", "reported_result": 396000}
{"binder": "ADI-11826 Fab (Fab, V domains shown, Fab fragment; also called Ab26) VH: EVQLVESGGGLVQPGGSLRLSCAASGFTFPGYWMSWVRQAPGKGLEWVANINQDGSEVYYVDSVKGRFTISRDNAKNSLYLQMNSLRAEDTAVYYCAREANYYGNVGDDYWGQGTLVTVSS VL: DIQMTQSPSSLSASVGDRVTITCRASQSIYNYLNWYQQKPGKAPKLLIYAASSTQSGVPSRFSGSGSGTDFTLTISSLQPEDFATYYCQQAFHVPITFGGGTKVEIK", "reported_result": "1.76e+06"}
{"binder": "ADI-11825 Fab (Fab, V domains shown, Fab fragment; also called Ab25) VH: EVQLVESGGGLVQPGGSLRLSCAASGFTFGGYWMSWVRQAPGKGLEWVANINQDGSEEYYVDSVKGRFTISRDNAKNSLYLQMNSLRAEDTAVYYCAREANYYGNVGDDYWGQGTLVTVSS VL: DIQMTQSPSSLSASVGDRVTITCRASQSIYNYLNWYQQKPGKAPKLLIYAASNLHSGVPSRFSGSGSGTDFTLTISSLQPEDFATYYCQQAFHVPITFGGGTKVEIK", "reported_result": "2.13e+06"}
